Tested on: Streptococcus Sp
Assay: standard plate dilution method, Streptococcus sp.
Type: cell-based
Design: key: +: active; -: inactive
Settings: agar plates, 1 to 100 milligrams/liter
parameter_measured: Microorganism SS (growth inhibition)

# compound, parameter_measured, obs_value
records = [
    ("CCOC(=O)c1cn2c3c(cc(F)cc3c1=O)OCC2C (stereo not shown)", "Microorganism SS (growth inhibition)", "-"),
    ("Cc1ccc2c(=O)c(C(=O)O)cn3c2c1OCC3C (stereo not shown)", "Microorganism SS (growth inhibition)", "+"),
    ("CCOC(=O)c1cn2c3c(c(C)c(Cl)cc3c1=O)OCC2C (stereo not shown) [Example 34 (ester)]", "Microorganism SS (growth inhibition)", "+"),
    ("Cc1cc(Cl)c2c3c1c(=O)c(C(=O)O)cn3C(C)CO2 (stereo not shown)", "Microorganism SS (growth inhibition)", "+"),
    ("CCOC(=O)c1cn2c3c(cc(C)cc3c1=O)OCC2C (stereo not shown)", "Microorganism SS (growth inhibition)", "-"),
    ("CCOC(=O)c1cn2c3c(cc(Cl)cc3c1=O)OCC2C (stereo not shown)", "Microorganism SS (growth inhibition)", "-"),
    ("CC1COc2ccc(Cl)c3c(=O)c(C(=O)O)cn1c23 (stereo not shown)", "Microorganism SS (growth inhibition)", "+"),
    ("Cc1c(Cl)cc2c(=O)c(C(=O)O)cn3c2c1OCC3C (stereo not shown)", "Microorganism SS (growth inhibition)", "+"),
    ("CC1COc2ccc(F)c3c(=O)c(C(=O)O)cn1c23 (stereo not shown)", "Microorganism SS (growth inhibition)", "+"),
    ("Cc1cc(C)c2c(=O)c(C(=O)O)cn3c2c1OCC3C (stereo not shown)", "Microorganism SS (growth inhibition)", "+"),
]

###

Test system: Pseudmonas aeruginosa
Experiment: standard plate dilution method, Pseudomonas aeruginosa
Assay type: cell-based
Parameters: key: +: active; -: inactive
Settings: agar plates, 1 to 100 milligrams/liter
Description: The culture medium employed permits susceptibility testing of fastidious microorganisms towards antibiotics, sulfonamides and other chemotherapeutic agents. Tryptone soy agar (oxoid) of the following composition is the culture medium. In the test procedure, the amount of a compound required to give complete inhibition or no inhibition of the microbial growth on the agar plates was determined. […] The microbial growth on each plate is read visually, and minimal inhibitory concentrations are recorded.
parameter_measured: Microorganism PA (growth inhibition)

# compound, parameter_measured, obs_value
data = [
    ("Cc1cc2c3c(c1)c(=O)c(C(=O)O)cn3C(C)CO2 (stereo not shown)", "Microorganism PA (growth inhibition)", "-"),
    ("CC1COc2c(F)ccc3c(=O)c(C(=O)O)cn1c23 (stereo not shown)", "Microorganism PA (growth inhibition)", "-"),
    ("CC1COc2ccc(Cl)c3c(=O)c(C(=O)O)cn1c23 (stereo not shown)", "Microorganism PA (growth inhibition)", "-"),
    ("Cc1cc(Cl)c2c3c1c(=O)c(C(=O)O)cn3C(C)CO2 (stereo not shown)", "Microorganism PA (growth inhibition)", "+"),
    ("Cc1c(Cl)cc2c(=O)c(C(=O)O)cn3c2c1OCC3C (stereo not shown)", "Microorganism PA (growth inhibition)", "+"),
    ("Cc1cc(C)c2c(=O)c(C(=O)O)cn3c2c1OCC3C (stereo not shown)", "Microorganism PA (growth inhibition)", "+"),
    ("O=C(O)c1cn2c3c(cccc3c1=O)OCC2", "Microorganism PA (growth inhibition)", "-"),
    ("CCOC(=O)c1cn2c3c(c(C)c(Cl)cc3c1=O)OCC2C (stereo not shown) [Example 34 (ester)]", "Microorganism PA (growth inhibition)", "+"),
    ("CC1COc2c(Cl)ccc3c(=O)c(C(=O)O)cn1c23 (stereo not shown)", "Microorganism PA (growth inhibition)", "+"),
    ("CC1COc2cc(Cl)cc3c(=O)c(C(=O)O)cn1c23 (stereo not shown)", "Microorganism PA (growth inhibition)", "-"),
]

Data provenance is patent US3984548A.
